- Test system: normal human kidney cells
- Procedure details: Cytotoxic activity (MTT assay)
- Assay type: cell-based
- Test settings: 100 µM, 24 h
Endpoint name: Cell Viability, % of Control, HEK-298

[
  {
    "Molecule": "CC1CCC2C(C1)C(Cl)C(O)C(C)(O)C2C(=O)CCO (stereo not shown)",
    "Endpoint name": "Cell Viability, % of Control, HEK-298",
    "Result": "98.10 ± 1.15 % of Control"
  }
]

If you can, please state the reported Cell Viability, % of Control, HEK-298 value of C[C@H]1CC[C@H]2C(=C[C@@H](O)[C@@](C)(O)[C@@H]2C(=O)CCO)C1 . 96.45 ± 7.64 % of Control

If you can, please state the reported Cell Viability, % of Control, HEK-298 value of CC(=O)[C@@H]1[C@H]2CC[C@H](CO)C[C@@H]2C=C[C@@]1(C)O . 83.26 ± 3.78 % of Control

If you can, please state the reported Cell Viability, % of Control, HEK-298 value of C[C@H]1C=C[C@H]2[C@H](O)[C@@H](C)CC[C@@H]2[C@H]1C(=O)CCO [Compound 8, 13-dehydroxypallidopenilline A] . 86.10 ± 2.24 % of Control

If you can, please state the reported Cell Viability, % of Control, HEK-298 value of C[C@@]1(O)C=C[C@H]2C[C@@H](CO)CC[C@@H]2[C@H]1C(=O)CCO . 87.01 ± 2.71 % of Control

If you can, please state the reported Cell Viability, % of Control, HEK-298 value of CC1(O)CCC2C(C=CC(C)(O)C2C(=O)CCO)C1 (stereo not shown) [Compound 4, 8-hydroxyzosteropenilline G] . 94.71 ± 1.53 % of Control

If you can, please state the reported Cell Viability, % of Control, HEK-298 value of CC1=C[C@H](O)[C@H]2C[C@@H](C)CC[C@@H]2[C@H]1C(=O)CCO . 95.16 ± 4.01 % of Control

If you can, please state the reported Cell Viability, % of Control, HEK-298 value of CC(=O)OCCC(=O)[C@@H]1[C@H]2CC[C@H](C)[C@@H](O)[C@@H]2C=C[C@@]1(C)O . 96.92 ± 4.83 % of Control

If you can, please state the reported Cell Viability, % of Control, HEK-298 value of C[C@H]1CC[C@@H]2[C@@H](C(=O)CCO)[C@](C)(O)C=C[C@H]2C1 . 93.97 ± 2.36 % of Control

If you can, please state the reported Cell Viability, % of Control, HEK-298 value of CC(=O)C1C2CCC(C)C(O)C2C=CC1(C)O (stereo not shown) . 80.00 ± 0.99 % of Control

If you can, please state the reported Cell Viability, % of Control, HEK-298 value of CC1=CC(O)C2CC(C)(O)CCC2C1C(=O)CCO (stereo not drawn) [Compound 2, 11-epi-8-hydroxyzosteropenilline M] . 90.98 ± 2.82 % of Control

If you can, please state the reported Cell Viability, % of Control, HEK-298 value of CC(=O)[C@@H]1[C@H]2CC[C@@](C)(O)C[C@@H]2C=C[C@@]1(C)O . 85.64 ± 1.85 % of Control

If you can, please state the reported Cell Viability, % of Control, HEK-298 value of C[C@H]1CC[C@H]2[C@@H](C=C[C@@](C)(O)[C@@H]2C(=O)CCO)[C@@H]1O . 89.76 ± 3.31 % of Control
